test: Hepatic clearance in rat hepatocytes; format: ADME, cell-based, Hepatocyte
Measured Property: CLhep predicted

State the recorded CLhep predicted for this entry: CN1C(=O)[C@](O)(C#Cc2cccc(-n3nc(C(N)=O)c4cccnc43)c2)[C@H]2C[C@H]21
< 10 mL/min/kg

====

assay: Oral bioavailability in Sprague-Dawley rat at 5 mg/kg; type: ADME, organism-based; settings: in vivo
Measured Property: bioavailability (%)
Please give a number only; it is taken to be in %.

State the recorded bioavailability for this entry: CN1CC[C@@](O)(C#Cc2cccc(-n3nc(C(N)=O)c4cccnc43)c2)C1=O
62

====

// reported Vd for each item listed
test: Volume of distribution in C57BL/6J mouse; type: ADME; conditions: in vivo
Please give a number only; it is taken to be in L/kg.

> print(dat)
                                smiles.data  measured.property  obs.value
1  CN1C(=O)[C@](O)(C#Cc2cccc(-n3nc(C(N)=O)c4cccnc43)c2)[C@H]2C[C@H]21                 Vd        1.1

Switching to the query record.
State the recorded Vd for this entry: CN1CC[C@@](O)(C#Cc2cccc(-n3nc(C(N)=O)c4cccnc43)c2)C1=O
0.5

====

test: Oral bioavailability in non-naive Beagle dog at 5 mg/kg; assay type: ADME, organism-based, Canis lupus familiaris; settings: in vivo
Measured Property: bioavailability
Respond with the figure and its unit, in that order.

State the recorded bioavailability for this entry: CN1CC[C@@](O)(C#Cc2cccc(-n3nc(C(N)=O)c4cccnc43)c2)C1=O
44%

====

assay: Half life in iv dosed non-naive Beagle dog; assay type: ADME, organism-based, Canis lupus familiaris; conditions: in vivo
Measured Property: half-life
Respond with the figure and its unit, in that order.

State the recorded half-life for this entry: CN1C(=O)[C@](O)(C#Cc2cccc(-n3nc(C(N)=O)c4cccnc43)c2)[C@H]2C[C@H]21
4.8 h

====

test: Hepatic clearance in mouse hepatocytes; format: ADME, cell-based, Hepatocyte
Measured Property: CLhep predicted

State the recorded CLhep predicted for this entry: CN1C(=O)[C@](O)(C#Cc2cccc(-n3nc(C(N)=O)c4cccnc43)c2)[C@H]2C[C@H]21
< 21 mL/min/kg

====

experiment: Oral bioavailability in Cynomolgus monkey at 5 mg/kg; assay type: ADME, organism-based, Macaca fascicularis; conditions: in vivo
Measured Property: bioavailability

State the recorded bioavailability for this entry: CN1CC[C@@](O)(C#Cc2cccc(-n3nc(C(N)=O)c4cccnc43)c2)C1=O
> 100%

====

test: Oral bioavailability in C57BL/6J mouse at 50 mg/kg; assay type: ADME, organism-based; conditions: in vivo
Measured Property: bioavailability
Respond with the figure and its unit, in that order.

State the recorded bioavailability for this entry: CN1CC[C@@](O)(C#Cc2cccc(-n3nc(C(N)=O)c4cccnc43)c2)C1=O
72%

====

assay: Hepatic clearance in dog liver microsomes; format: ADME, Canis lupus familiaris, Microsome
Measured Property: CLhep predicted (mL/min/kg)
Please give a number only; it is taken to be in mL/min/kg.

State the recorded CLhep predicted for this entry: CN1C(=O)[C@](O)(C#Cc2cccc(-n3nc(C(N)=O)c4cccnc43)c2)[C@H]2C[C@H]21
14

====

assay: Hepatic clearance in cynomolgus monkey hepatocytes; assay type: ADME, cell-based, Macaca fascicularis, Hepatocyte
Measured Property: CLH

State the recorded CLH for this entry: CN1C(=O)[C@](O)(C#Cc2cccc(-n3nc(C(N)=O)c4cccnc43)c2)[C@H]2C[C@H]21
< 8.8 mL/min/kg

====

assay: Oral bioavailability in non-naive Beagle dog at 1 mg/kg; type: ADME, organism-based, Canis lupus familiaris; conditions: in vivo
Measured Property: bioavailability (%)
Please give a number only; it is taken to be in %.

State the recorded bioavailability for this entry: CN1C(=O)[C@](O)(C#Cc2cccc(-n3nc(C(N)=O)c4cccnc43)c2)[C@H]2C[C@H]21
78

====

experiment: Hepatic clearance in human liver microsomes; assay type: ADME, Microsome
Measured Property: CLhep predicted

State the recorded CLhep predicted for this entry: CN1C(=O)[C@](O)(C#Cc2cccc(-n3nc(C(N)=O)c4cccnc43)c2)[C@H]2C[C@H]21
5.8 mL/min/kg

====

experiment: Hepatic clearance in rat liver microsomes; format: ADME, Microsome
Measured Property: CLhep predicted (mL/min/kg)
Please give a number only; it is taken to be in mL/min/kg.

State the recorded CLhep predicted for this entry: CN1C(=O)[C@](O)(C#Cc2cccc(-n3nc(C(N)=O)c4cccnc43)c2)[C@H]2C[C@H]21
18

====

assay: Hepatic clearance in mouse liver microsomes; format: ADME, Microsome
Measured Property: CLhep predicted

State the recorded CLhep predicted for this entry: CN1C(=O)[C@](O)(C#Cc2cccc(-n3nc(C(N)=O)c4cccnc43)c2)[C@H]2C[C@H]21
29 mL/min/kg

====

target: Mitogen-activated protein kinase kinase kinase 14 (Homo sapiens, UniProt Q99558); experiment: Inhibition of NIK in human primary B cell assessed as inhibition of CD40L-stimulated nuclear translocation of p52 in cell based assay
Sequence (Q99558 whole entry): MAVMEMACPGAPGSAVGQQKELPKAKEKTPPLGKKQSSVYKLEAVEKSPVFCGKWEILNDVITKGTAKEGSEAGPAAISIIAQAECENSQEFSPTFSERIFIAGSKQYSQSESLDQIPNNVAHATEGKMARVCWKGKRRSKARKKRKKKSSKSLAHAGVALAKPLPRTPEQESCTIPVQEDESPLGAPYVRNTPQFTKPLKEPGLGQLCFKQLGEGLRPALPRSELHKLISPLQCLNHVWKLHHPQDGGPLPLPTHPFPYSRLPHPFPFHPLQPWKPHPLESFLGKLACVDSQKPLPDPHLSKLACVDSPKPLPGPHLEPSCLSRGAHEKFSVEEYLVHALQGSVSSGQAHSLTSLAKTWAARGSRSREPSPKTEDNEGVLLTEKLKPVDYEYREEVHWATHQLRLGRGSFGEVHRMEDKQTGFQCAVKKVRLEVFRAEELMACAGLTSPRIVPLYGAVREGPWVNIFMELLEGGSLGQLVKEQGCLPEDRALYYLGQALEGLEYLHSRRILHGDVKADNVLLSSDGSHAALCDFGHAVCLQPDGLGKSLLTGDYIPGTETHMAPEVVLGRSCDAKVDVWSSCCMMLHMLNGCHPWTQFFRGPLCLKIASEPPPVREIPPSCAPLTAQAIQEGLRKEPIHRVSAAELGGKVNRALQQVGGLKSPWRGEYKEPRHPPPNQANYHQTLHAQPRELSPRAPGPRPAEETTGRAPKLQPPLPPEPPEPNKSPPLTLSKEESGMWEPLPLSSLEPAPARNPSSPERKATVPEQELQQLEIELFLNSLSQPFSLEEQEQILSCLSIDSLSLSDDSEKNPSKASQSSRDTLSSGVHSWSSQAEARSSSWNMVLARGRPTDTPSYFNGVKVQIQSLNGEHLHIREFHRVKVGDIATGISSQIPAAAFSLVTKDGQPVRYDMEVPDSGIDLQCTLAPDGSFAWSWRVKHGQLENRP
Measured Property: pIC50
In simple prose, pIC50 is minus the logarithm base ten of a concentration in moles per litre.

State the recorded pIC50 for this entry: CN1C(=O)[C@](O)(C#Cc2cccc(-n3nc(C(N)=O)c4cccnc43)c2)[C@H]2C[C@H]21
6.48

====

assay: Volume of distribution in non-naive Beagle dog; type: ADME, Canis lupus familiaris; conditions: in vivo
Measured Property: Vd (L/kg)
Please give a number only; it is taken to be in L/kg.

> print(dat)
                                smiles.data  measured.property  obs.value
1  CN1CC[C@@](O)(C#Cc2cccc(-n3nc(C(N)=O)c4cccnc43)c2)C1=O                 Vd        0.8

Switching to the query record.
State the recorded Vd for this entry: CN1C(=O)[C@](O)(C#Cc2cccc(-n3nc(C(N)=O)c4cccnc43)c2)[C@H]2C[C@H]21
1.2

====

assay: Lipophilicity, logD of the compound at pH 7.4 by shake flask method based LC-MS analysis; format: physicochemical; conditions: buffer
Measured Property: logD
Number, no unit, nothing else.

State the recorded logD for this entry: CN1C(=O)[C@](O)(C#Cc2cccc(-n3nc(C(N)=O)c4cccnc43)c2)[C@H]2C[C@H]21
1.8

====

molecular target: Mitogen-activated protein kinase kinase kinase 14 (Homo sapiens); assay: Inhibition of NIK in HUVEC cells assessed as inhibition of anti-[…]-stimulated p52 nuclear translocation; format: cell-based
Measured Property: IC50 (nM)
Please give a number only; it is taken to be in nM.

State the recorded IC50 for this entry: CN1C(=O)[C@](O)(C#Cc2cccc(-n3nc(C(N)=O)c4cccnc43)c2)[C@H]2C[C@H]21
55

====

test: Hepatic clearance in dog hepatocytes; type: ADME, cell-based, Canis lupus familiaris, Hepatocyte
Measured Property: CLhep predicted

State the recorded CLhep predicted for this entry: CN1C(=O)[C@](O)(C#Cc2cccc(-n3nc(C(N)=O)c4cccnc43)c2)[C@H]2C[C@H]21
< 7.8 mL/min/kg

====

assay: Plasma clearance in iv dosed Cynomolgus monkey; assay type: ADME, organism-based, Macaca fascicularis; conditions: in vivo
Measured Property: clearance (mL/min/kg)
Please give a number only; it is taken to be in mL/min/kg.

State the recorded clearance for this entry: CN1C(=O)[C@](O)(C#Cc2cccc(-n3nc(C(N)=O)c4cccnc43)c2)[C@H]2C[C@H]21
6.7

====

experiment: Plasma clearance in iv dosed non-naive Beagle dog; format: ADME, organism-based, Canis lupus familiaris
Measured Property: clearance (mL/min/kg)
Please give a number only; it is taken to be in mL/min/kg.

State the recorded clearance for this entry: CN1C(=O)[C@](O)(C#Cc2cccc(-n3nc(C(N)=O)c4cccnc43)c2)[C@H]2C[C@H]21
7.1

====

assay: Half life in iv dosed Sprague-Dawley rat; assay type: ADME, organism-based; conditions: in vivo
Measured Property: half-life (min)
Please give a number only; it is taken to be in min.

State the recorded half-life for this entry: CN1C(=O)[C@](O)(C#Cc2cccc(-n3nc(C(N)=O)c4cccnc43)c2)[C@H]2C[C@H]21
42

====

test: Hepatic clearance in human hepatocytes; format: ADME, cell-based, Hepatocyte
Measured Property: CLhep predicted

State the recorded CLhep predicted for this entry: CN1C(=O)[C@](O)(C#Cc2cccc(-n3nc(C(N)=O)c4cccnc43)c2)[C@H]2C[C@H]21
< 6.2 mL/min/kg

====

test: Hepatic clearance in cynomolgus monkey liver microsomes; type: ADME, Macaca fascicularis, Microsome
Measured Property: CLhep predicted (mL/min/kg)
Please give a number only; it is taken to be in mL/min/kg.

State the recorded CLhep predicted for this entry: CN1C(=O)[C@](O)(C#Cc2cccc(-n3nc(C(N)=O)c4cccnc43)c2)[C@H]2C[C@H]21
15

====

// reported Vd for each item listed
assay: Volume of distribution in Cynomolgus monkey; type: ADME, Macaca fascicularis; details: in vivo
Please give a number only; it is taken to be in L/kg.

> print(dat)
                                smiles.data  measured.property  obs.value
1  CN1CC[C@@](O)(C#Cc2cccc(-n3nc(C(N)=O)c4cccnc43)c2)C1=O                 Vd        1.1

State the recorded Vd for this entry: CN1C(=O)[C@](O)(C#Cc2cccc(-n3nc(C(N)=O)c4cccnc43)c2)[C@H]2C[C@H]21
2
